Target: BTK (Homo sapiens, UniProt Q06187)
Construct: endogenous in cells; host or cells: TMD-8 cells
Sequence (Q06187 whole entry): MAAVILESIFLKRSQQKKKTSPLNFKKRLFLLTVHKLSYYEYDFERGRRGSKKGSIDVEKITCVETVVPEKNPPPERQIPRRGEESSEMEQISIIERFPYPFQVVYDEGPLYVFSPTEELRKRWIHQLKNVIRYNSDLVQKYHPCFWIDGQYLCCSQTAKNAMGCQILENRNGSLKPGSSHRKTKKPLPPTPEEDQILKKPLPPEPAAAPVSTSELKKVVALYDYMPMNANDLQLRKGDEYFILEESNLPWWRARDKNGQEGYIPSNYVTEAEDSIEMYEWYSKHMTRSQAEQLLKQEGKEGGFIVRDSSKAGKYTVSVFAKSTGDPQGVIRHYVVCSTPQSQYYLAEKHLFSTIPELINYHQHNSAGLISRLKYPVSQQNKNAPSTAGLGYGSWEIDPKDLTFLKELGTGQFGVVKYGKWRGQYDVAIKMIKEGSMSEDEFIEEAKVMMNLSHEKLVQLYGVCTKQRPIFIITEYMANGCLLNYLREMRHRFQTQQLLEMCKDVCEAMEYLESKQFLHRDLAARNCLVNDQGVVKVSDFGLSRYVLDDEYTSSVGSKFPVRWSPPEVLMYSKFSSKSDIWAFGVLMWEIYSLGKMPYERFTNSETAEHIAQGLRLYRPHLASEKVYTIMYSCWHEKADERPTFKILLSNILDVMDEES
Test: BTK degradation in TMD-8 cells, HTRF assay after 6 h treatment
Format: cell-based
Conditions: IC50 (DC50) of BTK degradation
measure: DC50 (nM)

Guide cases for DC50, answers given:
{"columns": ["molecule", "DC50, nM"],
 "data": [
  ["Cc1cc(-c2n[nH]c3ncc(-c4ccc(N5CCN(C6CC(c7ccc([C@H]8CCC(=O)NC8=O)cc7)C6)CC5)cc4)cc23)ccc1[C@@H](C)NC(=O)c1noc(C(C)(C)C)n1 (some centres unmarked) [Example 224]", 6.16],
  ["Cc1cc(-c2n[nH]c3ncc(-c4ccc(N5CCN(CC6CCN(c7ccc(N8CCC(=O)NC8=O)cc7)CC6)CC5)cc4)cc23)ccc1[C@@H](C)NC(=O)c1nc(C(C)(C)C)no1", 8.62],
  ["Cc1cc(-c2n[nH]c3ncc(-c4ccc(N5CCN(CC6CCN(c7ccc(N8CCC(=O)NC8=O)cc7)CC6)CC5)cc4)cc23)ccc1CNC(=O)c1noc(C(C)(C)C)n1", 9.1],
  ["Cc1cc(-c2n[nH]c3ncc(-c4ccc(N5CC6(CN(CC7CCN(c8ccc(N9CCC(=O)NC9=O)cc8)CC7)C6)C5)cc4)cc23)ccc1[C@@H](C)NC(=O)c1nc(C(C)(C)C)no1", 1.95],
  ["Cc1cc(-c2n[nH]c3ncc(-c4ccc(N5CCN(CCc6ccc(C7CCC(=O)NC7=O)c(F)c6)CC5)cn4)cc23)ccc1[C@@H](C)NC(=O)c1noc(C(C)(C)C)n1 (some centres unmarked)", 1.74]
]}

(1) Cc1cc(-c2n[nH]c3ncc(-c4ccc(N5CCN(CCC6CCN(c7ccc(C8CCC(=O)NC8=O)c(C)n7)CC6)CC5)cc4)cc23)ccc1[C@@H](C)NC(=O)c1noc(C(C)(C)C)n1 (some centres unmarked)
(2) CC(C)(C)c1nc(C(=O)NCc2ccc(-c3n[nH]c4ncc(-c5ccc(N6CCN(CC7CCN(c8ccc(N9CCC(=O)NC9=O)cc8)CC7)CC6)cc5)cc34)cc2CO)no1
(3) Cc1cc(-c2n[nH]c3ncc(-c4ccc(N5CCN(CCc6ccc(N7CCC(=O)NC7=O)cc6)CC5)cc4)cc23)ccc1[C@@H](C)NC(=O)c1noc(C(C)(C)C)n1
Put the items in order so that reported DC50 rises from first to last. I would appreciate it if you listed the labels in the requested order.
2, 3, 1

* * *

Biological target: BTK (Homo sapiens, UniProt Q06187)
Construct: endogenous in cells; host or cells: TMD-8 cells
Assay: BTK degradation in TMD-8 cells, HTRF assay after 6 h treatment
Format: cell-based
Conditions: IC50 (DC50) of BTK degradation
measure: DC50 (nM)

{"columns": ["compound", "unit", "reported_measurement"],
 "data": [
  ["Cc1cc(-c2n[nH]c3ncc(-c4ccc(N5CCN(CC6CCN(c7ccc(N8CCC(=O)NC8=O)c(C)c7)CC6)CC5)cc4)cc23)ccc1[C@@H](C)NC(=O)c1noc(C(C)(C)C)n1", "nM", 2.6]
]}

(P) Cc1cc(-c2n[nH]c3ncc(-c4ccc(N5CCC(CN6CCN(c7ccc(N8CCC(=O)NC8=O)cc7)CC6)CC5)cc4)cc23)ccc1[C@@H](C)NC(=O)c1noc(C(C)(C)C)n1
(Q) COc1nc(CCN2CCN(c3ccc(-c4cnc5[nH]nc(-c6ccc([C@@H](C)NC(=O)c7nc(C(C)(C)C)no7)c(C)c6)c5c4)cc3)CC2)ccc1C1CCC(=O)NC1=O (some centres unmarked)
Look at P and Q . Which one has the lower recorded DC50 number? Choose, then provide that item's label.
P
